assay: Absorbance at photostationary state (PSS) under simulated sunlight or 365 nm light; assay type: physicochemical; design: unit not given here; settings: wavelength of maximum absorbance in the visible range, ring-closed isoform; 2.0×10^−5 M in triglyme
Listed here are compounds together with their documented λ max.
// print number alone

Known results for compounds:
[
  {
    "smiles.record": "Cc1ccc(-c2sc(-c3cccs3)cc2C2=C(c3cc(-c4cccs4)sc3-c3ccc(C)s3)C(F)(F)C(F)(F)C2(F)F)s1",
    "measured.attribute": "λ max",
    "recorded.value": 645
  },
  {
    "smiles.record": "CC(=O)c1ccc(-c2cc(C3=C(c4cc(-c5ccccc5)sc4-c4ccc(C(C)(C)C)cc4)C(F)(F)C(F)(F)C3(F)F)c(-c3ccc(C(C)(C)C)cc3)s2)cc1",
    "measured.attribute": "λ max",
    "recorded.value": 625
  },
  {
    "smiles.record": "COc1ccc(-c2oc3cc(OC)ccc3c2C2=C(c3c(-c4ccc(OC)cc4)oc4cc(OC)ccc34)C(F)(F)C(F)(F)C2(F)F)cc1",
    "measured.attribute": "λ max",
    "recorded.value": 516
  },
  {
    "smiles.record": "c1ccc(-c2nc(-c3nc(-c4ccccc4)sc3-c3nc(-c4ccccc4)sc3-c3ccccc3)c(-c3ccccc3)s2)cc1",
    "measured.attribute": "λ max",
    "recorded.value": 600
  },
  {
    "smiles.record": "COc1ccc2c(C3=C(c4c(-c5ccc(OC)c(OC)c5)oc5cc(OC)ccc45)C(F)(F)C(F)(F)C3(F)F)c(-c3ccc(OC)c(OC)c3)oc2c1",
    "measured.attribute": "λ max",
    "recorded.value": 516
  },
  {
    "smiles.record": "Cc1ccc(-c2cc(C3=C(c4cc(-c5ccc(C)s5)sc4-c4ccc(C)s4)C(F)(F)C(F)(F)C3(F)F)c(-c3ccc(C)s3)s2)s1",
    "measured.attribute": "λ max",
    "recorded.value": 650
  }
]

Please look up its λ max: COc1ccc(-c2oc3ccc(OC)cc3c2C2=C(c3c(-c4ccc(OC)cc4)oc4ccc(OC)cc34)C(F)(F)C(F)(F)C2(F)F)cc1
550

# iterate: C[Si](C)(C)c1ccc(-c2cc(C3=C(c4cc(-c5ccc([Si](C)(C)C)s5)sc4-c4ccc([Si](C)(C)C)s4)C(F)(F)C(F)(F)C3(F)F)c(-c3ccc([Si](C)(C)C)s3)s2)s1
648

// repeat for COCCOCCOCCOC(C)(C)c1ccc(-c2cc(C3=C(c4cc(-c5ccc(C(C)(C)OCCOCCOCCOC)cc5)sc4-c4ccc(C(C)(C)C)cc4)C(F)(F)C(F)(F)C3(F)F)c(-c3ccc(C(C)(C)C)cc3)s2)cc1 and report
615

Now give it for CC(C)(C)c1ccc(-c2cc(C3=C(c4cc(-c5ccc(C(C)(C)C)s5)sc4-c4cccs4)C(F)(F)C(F)(F)C3(F)F)c(-c3cccs3)s2)s1 too.
645

Moving on to COc1ccc(-c2sc(-c3ccc(C#N)cc3)cc2C2=C(c3cc(-c4ccc(C#N)cc4)sc3-c3ccc(OC)cc3)C(F)(F)C(F)(F)C2(F)F)cc1
640

Same question for CC(C)(C)c1ccc(-c2cc(C3=C(c4cc(-c5ccc(C(C)(C)C)s5)sc4-c4ccc(O[Si](O[Si](C)(C)C)(O[Si](C)(C)C)O[Si](C)(C)C)cc4)C(F)(F)C(F)(F)C3(F)F)c(-c3ccc(O[Si](O[Si](C)(C)C)(O[Si](C)(C)C)O[Si](C)(C)C)cc3)s2)s1 please.
648

Also check CC(C)(C)c1ccc(-c2sc(C(C)(C)C)cc2C2=C(c3cc(C(C)(C)C)sc3-c3ccc(C(C)(C)C)s3)C(F)(F)C(F)(F)C2(F)F)s1
550
